Hello, the source for this data is PubChem BioAssay AID1963315, in case you need it.

- system: Tyrosine-protein kinase ABL1 (Homo sapiens)
- assayText: ABL1 kinase (ABL1-N-HiBiT) SDR gain of signal screen
- conditionsUsed: Purified ABL1-N-HiBiT enzyme, Nano-Glo HiBiT luminescence, 30 min compound incubation; series mostly up to 32.9 µM
Records with an inconclusive call do not appear. Active and inactive are the calls of the source. The call rests on the fitted dose curve.
recordedEndpoint: Potency

Nc1nc(NCCNc2ncc(-n3ccnc3)c(-c3ccc(Cl)cc3Cl)n2)ccc1[N+](=O)[O-] | inactive
CCn1nc(C2CCN(C(=O)CCO)CC2)nc1-c1cnc(N)c(-c2nnc(C(C)(C)C)o2)n1 | 6230 nM (active)
O=C(NCCO)c1cccc(-c2cc(Nc3ccc(OC(F)(F)F)cc3)ncn2)c1 | inactive
CCCS(=O)(=O)Nc1ccc(F)c(C(=O)c2c[nH]c3ncc(Cl)cc23)c1F | 9320 nM (active)
CCCCCCCCCCCCc1ccc(S(=O)(=O)Nc2nncs2)cc1 | inactive
Cc1nc2ccc(-n3ncc(C(=O)c4cc5ccccc5[nH]4)c3N)cc2[nH]1 | 3930 nM (active)
CCNC(=O)Nc1ccc(-c2nc3c(c(N4CCOC[C@@H]4C)n2)CCN(c2ncccn2)C3)cc1 | inactive
S=C(NCc1ccc2c(c1)OCO2)N1CCN(c2ncnc3c2oc2ccccc23)CC1 | inactive
Cc1sc2c(c1C)C(c1ccc(Cl)cc1)=N[C@@H](CC(=O)Nc1ccc(OCCOCCOCCOCCNc3cccc4c3C(=O)N(C3CCC(=O)NC3=O)C4=O)cc1)c1nnc(C)n1-2 (stereo not given in full) | inactive
Cc1cccc(C)c1-n1c(=O)c2cnc(Nc3ccc(N4CCN(C)CC4)cc3)nc2n2c3ccccc3nc12 | 55.5 nM (active)
COc1cc2nccc(Oc3ccc(NC(=O)Nc4ccc(F)cc4F)c(F)c3)c2cc1OC | 641 nM (active)
Oc1ccc(-c2ccc(-c3cc(Nc4cccc(CNC5CC5)c4)n[nH]3)cc2)c(O)c1 | 9600 nM (active)
Nc1ncccc1-c1nc2ccc(-c3ccccc3)nc2n1-c1ccc(C2(N)CCC2)cc1 | inactive
Cc1cc(Nc2ncc3c(n2)N(C)C(=O)N(c2cc(NC(=O)c4cccc(C(F)(F)F)c4)ccc2C)C3)n(C)n1 | 31.2 nM (active)
Cc1c(Cl)cccc1S(=O)(=O)Nc1nc(NCCc2ccccc2)nc2c1CN(Cc1ccccc1)CC2 | inactive
COc1cc2ncnc(Oc3cccc(NC(=O)Nc4cc(C(C)(C)C(F)(F)F)on4)c3)c2cc1OC | 234 nM (active)
Cc1ccc(-n2nc(C(C)(C)C)cc2NC(=O)NCc2cc(F)ccc2Oc2ccc3c(cnn3CCO)c2)cc1 | 67.9 nM (active)
Cc1cc(Nc2ncc3cc(-c4c(Cl)cccc4Cl)c(=O)n(C)c3n2)ccc1F | 4.94 nM (active)
COc1cc(N2CCC(N3CCN(C)CC3)CC2)ccc1Nc1ncc(Cl)c(Nc2ccccc2P(C)(C)=O)n1 | 605 nM (active)
CC(C)(NS(=O)(=O)c1ccc2c(Cl)cnc(N=C(N)N)c2c1)C(=O)O | inactive
CN1CCN(c2ccc(Nc3ncc4cc(C#N)c(=O)n(C5CCCC5)c4n3)cc2)CC1 | 29.5 nM (active)
CCN1/C(=C\C(C)=O)Sc2ccc(OC)cc21 | inactive
C#Cc1cccc(Nc2ncnc3cc4c(cc23)OCCOCCOCCO4)c1 | 5880 nM (active)
C[C@@H]1CN(CC(=O)Nc2ccc3c(c2)Cc2cccc(-c4cc(=O)cc(N5CCOCC5)o4)c2S3)C[C@H](C)O1 | inactive
O=c1cc(N2CCOCC2)nc2c3ccccc3ccn12 | 8550 nM (active)
